# STUDY TARGET: hEP1 (Homo sapiens, UniProt P34995)
# Construct: expressed in transfected cells; host or cells: HEK (by analogy HEK-293(EBNA))
# Sequence (P34995 1-402): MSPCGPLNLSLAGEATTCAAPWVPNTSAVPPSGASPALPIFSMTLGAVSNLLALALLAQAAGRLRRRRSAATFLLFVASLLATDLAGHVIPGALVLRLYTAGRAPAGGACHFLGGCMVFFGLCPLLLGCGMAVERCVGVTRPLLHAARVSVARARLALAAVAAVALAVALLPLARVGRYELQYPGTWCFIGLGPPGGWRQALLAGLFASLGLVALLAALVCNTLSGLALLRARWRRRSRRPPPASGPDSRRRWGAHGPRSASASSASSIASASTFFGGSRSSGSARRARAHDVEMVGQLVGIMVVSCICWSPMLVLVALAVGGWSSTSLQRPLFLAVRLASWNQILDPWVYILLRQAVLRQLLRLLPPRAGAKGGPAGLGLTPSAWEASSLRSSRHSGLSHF
# PROTOCOL TEXT: Calcium signal (FLIPR) assay, hEP1 (HEK)
# Assay type: cell-based
# CONDITION PARAMETERS: agonist potency, calcium signal; read-out: Standard agonist hEP1 (HEK)
OBSERVED PROPERTY: pEC50
One number for each entry, as −log10 of the molar value.

Query: I am curious: what pEC50 value has been reported for CCCCC[C@H](O)/C=C/[C@H]1[C@H](O)CC(=O)[C@@H]1C/C=C\CCCC(=O)O [PGE2, Prostaglandin E2, reference compound] ?
Response: 9.52
